The reported numbers originate from PubChem BioAssay (NCI).

System: M14 melanoma
Assay: NCI-60 one-dose screen, 48 h
Conditions: 10 µM unless noted
This is part of a sample that, as a whole, favours compounds with a hit. Of some 83,000 tested, about 20% had one in any assay. Active and inactive are the calls of the source. The calls were made as follows: active = growth percent below 10; inactive = the rest.
Tick one outcome: active, inactive

q: Look up the recorded call for `CCOC(=O)c1sc2nc(-c3cc(OC)c(OC)c(OC)c3)nc(N3CCOCC3)c2c1C` in this test.
a: inactive

q: Look up the recorded call for `O=C1Nc2ccccc2/C1=C/C(=O)c1ccc(N2CCOCC2)cc1` in this test.
a: inactive

q: Look up the recorded call for `O=C(CSc1nccc(Nc2ccc(S(=O)(=O)Nc3ccccn3)cc2)n1)c1ccc(Cl)cc1` in this test.
a: inactive

q: Look up the recorded call for `O=S(=O)(NCc1ccccc1)c1ncnc2nc[nH]c12` in this test.
a: inactive

q: Look up the recorded call for `COc1ccc(C=C2c3ccccc3-c3ccccc32)cc1` in this test.
a: inactive

q: Look up the recorded call for `C=C(C)[C@@H]1CC[C@]2(C(N)=O)CC[C@]3(C)[C@H](CC[C@@H]4[C@@]5(C)CC[C@H](O)C(C)(C)[C@@H]5CC[C@]43C)[C@@H]12` in this test.
a: active
